Consider the following variants; for each one, report its yeast fitness.
B1: tRNA (parent)
chain: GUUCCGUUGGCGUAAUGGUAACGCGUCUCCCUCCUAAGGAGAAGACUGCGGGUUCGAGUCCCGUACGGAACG

variants of: B1; assay: yeast fitness relative to wild type (ratio to wild type); higher = fitter; tRNA-Arg(CCU), competitive growth, 37 C, YPD
Variants at the floor of the assay were thinned out.
// return a plain number; no unit text

Q. Return value of yeast fitness for input C60G C61A A69G , no commentary.
A. 0.586

Q. Read the entry A14G U26A and write its reported yeast fitness.
A. 0.989

Q. Annotate the variant U28C C34U C55U C61A with its measured yeast fitness.
A. 0.592

Q. Return value of yeast fitness for input C4U U35G A45U , no commentary.
A. 0.583

Q. State its yeast fitness: "U32C"
A. 0.966
